target: human mGlu2 receptor (Homo sapiens, UniProt Q14416); assay: [35S]GTPγS binding assay, mGluR2 negative allosteric modulation (membranes from CHO cells transfected with human mGlu2 receptor, glutamate ~EC80 60 μM); conditions: read-out: GTPγS - hmGluR2 anGT Emax, relative maximal effect: maximal % inhibition relative to the control glutamate response
Sequence (Q14416 19-872): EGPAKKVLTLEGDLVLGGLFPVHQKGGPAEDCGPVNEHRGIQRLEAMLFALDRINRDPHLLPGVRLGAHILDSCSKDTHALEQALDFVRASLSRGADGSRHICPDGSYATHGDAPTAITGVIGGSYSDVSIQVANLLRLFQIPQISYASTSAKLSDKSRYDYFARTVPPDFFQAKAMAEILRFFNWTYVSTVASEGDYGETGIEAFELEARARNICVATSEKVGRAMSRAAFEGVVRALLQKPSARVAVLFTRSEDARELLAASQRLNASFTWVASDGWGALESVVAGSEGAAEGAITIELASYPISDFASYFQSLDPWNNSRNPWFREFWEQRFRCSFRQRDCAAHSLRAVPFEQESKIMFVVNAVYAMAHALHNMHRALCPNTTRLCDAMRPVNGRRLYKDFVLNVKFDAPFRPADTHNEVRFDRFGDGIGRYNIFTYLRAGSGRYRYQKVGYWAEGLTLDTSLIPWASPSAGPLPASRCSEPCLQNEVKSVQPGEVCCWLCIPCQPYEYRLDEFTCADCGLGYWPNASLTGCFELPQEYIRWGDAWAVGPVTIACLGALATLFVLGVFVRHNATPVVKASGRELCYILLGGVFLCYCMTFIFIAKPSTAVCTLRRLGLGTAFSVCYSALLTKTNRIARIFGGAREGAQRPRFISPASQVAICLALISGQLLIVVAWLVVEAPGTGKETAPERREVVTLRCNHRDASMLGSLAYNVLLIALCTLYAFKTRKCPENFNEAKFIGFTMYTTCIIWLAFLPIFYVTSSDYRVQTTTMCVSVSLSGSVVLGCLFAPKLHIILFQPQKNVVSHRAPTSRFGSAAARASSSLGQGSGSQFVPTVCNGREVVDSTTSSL
measurement_name: Emax (%)
Answers are plain numbers, in %.

C[C@H]1CN(c2ccc(C(F)(F)F)cc2)C(=O)c2c(C(=O)Nc3ccccc3)cnn21    102
C[C@H]1CN(c2ccc(C(F)(F)F)cc2)C(=O)c2c(C(=O)NC3CCCCC3)cnn21    107
C[C@H]1CN(c2ccc(C(F)(F)F)cc2)C(=O)c2c(C(=O)Nc3ccncn3)cnn21    113
Cc1cc(N2C[C@H](C)n3ncc(C(=O)Nc4cccnc4)c3C2=O)ccc1C(F)(F)F    111
C[C@H]1CN(c2ccc(C(F)(F)F)cc2)C(=O)c2c(C(=O)Nc3cnccn3)cnn21    119

Fill in Emax for each of the 3 molecules listed.
1. Cc1cc(NC(=O)c2cnn3c2C(=O)N(c2ccc(C(F)(F)F)c(C)c2)C[C@@H]3C)ccn1
2. COc1cncc(NC(=O)c2cnn3c2C(=O)N(c2ccc(C(F)(F)F)c(Cl)c2)C[C@@H]3C)c1
3. C[C@H]1CN(c2ccc(C(F)(F)F)c(CF)c2)C(=O)c2c(C(=O)Nc3ccncc3)cnn21

1: 105; 2: 113; 3: 118

====

biological target: human mGlu2 receptor (Homo sapiens, UniProt Q14416); experiment: [35S]GTPγS binding assay, mGluR2 negative allosteric modulation (membranes from CHO cells transfected with human mGlu2 receptor, glutamate ~EC80 60 μM); conditions: GTPγS - hmGluR2 anGT pIC50, membranes with human mGlu2 receptor, glutamate ~EC80 (60 μM); pIC50 = -log IC50 (M)
measurement_name: log10 of IC50 (log10 of the value in M)
// do not treat as linear: log10 of IC50, unit M

Cc1ncc(NC(=O)c2cnn3c2C(=O)N(c2ccc(C(F)(F)F)cc2)C[C@@H]3C)cn1 [compound 99]    -7.34
C[C@H]1CN(c2ccc(Cl)c(Cl)c2)C(=O)c2c(C(=O)Nc3cnccn3)cnn21 [compound 116]    -8.87
C[C@H]1CN(c2ccc(C(F)(F)F)cc2)C(=O)c2c(C(=O)Nc3ccccn3)cnn21 [compound 9]    -7.95
C[C@H]1CN(c2ccc(C(F)(F)F)cc2)C(=O)c2c(C(=O)Nc3ccc(N)nc3)cnn21 [compound 19]    -8.58

Hi there! I need log10 of IC50 for each item below, if you can.
1. COc1ccccc1NC(=O)c1cnn2c1C(=O)N(c1ccc(C(F)(F)F)c(OC)n1)C[C@@H]2C [compound 122]
2. C[C@H]1CN(c2ccc(C(F)(F)F)cc2)C(=O)c2c(C(=O)Nc3cncc(F)n3)cnn21 [compound 145]
3. Cc1cc(NC(=O)c2cnn3c2C(=O)N(c2ccc(C(F)(F)F)c(C)c2)C[C@@H]3C)cc(C)n1 [compound 111]

1. -7.67
2. -8.91
3. -8.84

====

system: rats; assay: Reversal of the effect of the mGluR2 PAM JNJ-42153605-induced inhibition of scopolamine-induced hyperlocomotion; assay type: in vivo, rat; settings: Rattus norvegicus; rats, route PO, criterion total distance >1500 cm; read-out: ED50 SCOP JNJ-42153605 (Reversal of the effect of JNJ 42153605 on scopolamine-induced hyperlocomotion)
Give ED50 for every item shown.
Numbers only, in mg/kg.

C[C@H]1CN(c2ccc(C(F)(F)F)cc2)C(=O)c2c(C(=O)Nc3cnccn3)cnn21 [compound 100]    0.2

Attention now shifts to the item below.
Fill in: ED50 of C[C@H]1CN(c2ccc(C(F)(F)F)cc2)C(=O)c2c(C(=O)Nc3ccc(N)nc3)cnn21 [compound 19] is ___ 0.79

====

Please assign -1 whenever melting point is at or above 200 °C, and 1 whenever it is below.

Observe how each entry below is paired with its result.
C[C@H]1CN(c2ccc(C(F)(F)F)cc2)C(=O)c2c(C(=O)NC(=O)C3CCC3)cnn21    -1
C[C@H]1CN(c2ccc(C(F)(F)F)cc2)C(=O)c2c(C(=O)Nc3ccc(F)cn3)cnn21    1
C[C@H]1CN(c2ccc(C(F)(F)F)cc2)C(=O)c2c(C(=O)Nc3ncc[nH]3)cnn21    -1
COc1cncc(NC(=O)c2cnn3c2C(=O)N(c2ccc(C(F)(F)F)c(Cl)c2)C[C@@H]3C)c1    -1

Then there is this molecule:
Does Cc1cc(N2C[C@H](C)n3ncc(C(=O)Nc4cncc(F)c4)c3C2=O)ccc1C(F)(F)F have melting point strictly under 200 °C? 1

====

Give measured IC50 for each item. Keep answers brief.
molecular target: human mGlu2 receptor (Homo sapiens, UniProt Q14416); experiment: [35S]GTPγS binding assay, mGluR2 negative allosteric modulation (membranes from CHO cells transfected with human mGlu2 receptor, glutamate ~EC80 60 μM); conditions: GTPγS - hmGluR2 anGT pIC50, membranes with human mGlu2 receptor, glutamate ~EC80 (60 μM); pIC50 = -log IC50 (M);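 further: membranes preincubated 30 min at 30 °C with compound plus glutamate, then [35S]GTPγS (0.1 nM) incorporation measured over another 30 min at 30 °C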
Give bare numbers, in M.

Cc1cc(NC(=O)c2cnn3c2C(=O)N(c2ccc(Cl)c(C)c2)C[C@@H]3C)cc(C)n1    3.55e-09
COCc1cc(N2C[C@H](C)n3ncc(C(=O)Nc4ccnc(C)c4)c3C2=O)ccc1C(F)(F)F    5.5e-09
C[C@H]1CN(c2ccc(C(F)(F)F)cc2)C(=O)c2c(C(=O)NCC3CCOC3)cnn21 (some centres unmarked)    1.7e-07

Please look at the items below and tell me IC50 for each one, in order.
1. C[C@H]1CN(c2ccc(C(F)(F)F)cc2)C(=O)c2c(C(=O)Nc3ccc(S(C)(=O)=O)cc3)cnn21
2. Cc1cc(NC(=O)c2cnn3c2C(=O)N(c2ccc(C(F)(F)F)c(Cl)c2)C[C@@H]3C)on1

1. 3.09e-09
2. 2.88e-09

Report IC50 for every entry below.
1. Cc1cc(N2C[C@H](C)n3ncc(C(=O)Nc4cnccn4)c3C2=O)ccc1Cl
2. C[C@H]1CN(c2ccc(C(F)(F)F)cc2)C(=O)c2c(C(=O)NC3CCOCC3)cnn21
3. Cc1ncccc1NC(=O)c1cnn2c1C(=O)N(c1ccc(C(F)(F)F)cc1)C[C@@H]2C

1: 2.82e-09; 2: 1.86e-07; 3: 2e-08

====

measurement_name: melting point (°C)
Numbers only, in °C.

Cc1c(F)cncc1NC(=O)c1cnn2c1C(=O)N(c1ccc(C(F)(F)F)c(Cl)c1)C[C@@H]2C    167.78
Cc1cc(N2C[C@H](C)n3ncc(C(=O)Nc4cccnc4)c3C2=O)ccc1C(F)(F)F    156.85
C[C@H]1CN(c2ccc(C(F)(F)F)cc2)C(=O)c2c(C(=O)Nc3ccc(S(=O)(=O)F)cc3)cnn21    205.04
C[C@H]1CN(c2ccc(C(F)(F)F)cc2)C(=O)c2c(C(=O)Nc3ccnc(CO)c3)cnn21    169.28

# batch: return melting point for each of the 5 molecules below
1. C[C@H]1CN(c2ccc(C(F)(F)F)cc2)C(=O)c2c(C(=O)Nc3cnccc3CO)cnn21
2. C[C@H]1CN(c2ccc(C(F)(F)F)c(CF)c2)C(=O)c2c(C(=O)Nc3ccncc3)cnn21
3. C[C@H]1CN(c2ccc(C(F)(F)F)cc2)C(=O)c2c(C(=O)Nc3cccc(S(C)(=O)=O)c3)cnn21
4. COc1cncc(NC(=O)c2cnn3c2C(=O)N(c2ccc(C(F)(F)F)c(C)c2)C[C@@H]3C)c1
5. C[C@H]1CN(c2ccc(C(F)(F)F)cc2)C(=O)c2c(C(=O)NCc3ccc(N)nc3)cnn21

1: 212.57; 2: 197.4; 3: 217.7; 4: 194.8; 5: 104.2

====

I would appreciate it if you labelled entries T when melting point is 200 °C or higher, otherwise F.

Solved entries:
COc1cc(N2C[C@H](C)n3ncc(C(=O)Nc4cnccn4)c3C2=O)ccc1C(F)(F)F    F
C[C@H]1CN(c2ccc(C(F)(F)F)cc2)C(=O)c2c(C(=O)NC3COC3)cnn21    F
COc1cc(N2C[C@H](C)n3ncc(C(=O)Nc4cncc(C)c4)c3C2=O)ccc1C(F)(F)F    T

Turning to the following molecule.
Textbook exercise: given the entry C[C@H]1CN(c2ccc(C(F)(F)F)cc2)C(=O)c2c(C(=O)NCC3CCOC3)cnn21 (stereo partly shown) , state whether its melting point is greater than or equal to 200 °C. F

====

test system: Male Wiga Wistar rats; assay: Reversal of LY-404039-induced decrease of palpebral opening in apomorphine-challenged rats; assay type: in vivo, rat; conditions: Rattus norvegicus; rats, route PO (route cell empty for Co. 88 and 84); read-out: ED50 APO LY-404039 (Reversal of LY-404039-induced decrease of palpebral opening in apomorphine challenged rats)
measurement_name: ED50

The following compounds have reported results that may help.
Cc1cncc(NC(=O)c2cnn3c2C(=O)N(c2ccc(C(F)(F)F)c(Cl)c2)C[C@@H]3C)c1C [compound 126]    > 0.63 mg/kg
Cc1cncc(NC(=O)c2cnn3c2C(=O)N(c2ccc(C(F)(F)F)c(C)c2)C[C@@H]3C)c1 [compound 37]    > 0.63 mg/kg
C[C@H]1CN(c2ccc(C(F)(F)F)c(Cl)c2)C(=O)c2c(C(=O)Nc3ccccn3)cnn21 [compound 46]    1.99 mg/kg
Cc1cc(NC(=O)c2cnn3c2C(=O)N(c2ccc(Cl)c(OC(F)F)c2)C[C@@H]3C)ccn1 [compound 84]    > 2.5 mg/kg
Cc1cc(NC(=O)c2cnn3c2C(=O)N(c2ccc(C(F)(F)F)cn2)C[C@@H]3C)ccn1 [compound 88]    > 2.5 mg/kg
Cc1cc(NC(=O)c2cnn3c2C(=O)N(c2ccc(C(F)(F)F)c(Cl)c2)C[C@@H]3C)cc(C)n1 [compound 107]    > 0.63 mg/kg

Please look at the following compound next.
Need ED50, item C[C@H]1CN(c2ccc(C(F)(F)F)cc2)C(=O)c2c(C(=O)Nc3cccnc3)cnn21 [compound 1] 0.39 mg/kg

Attribution: patent US20200121677A1
